system: rodent lifetime carcinogenesis bioassay, tumor incidence TD50; assay: carcinogenic potency in animals, long-term in vivo studies, CPDB compilation (AID 1745844); conditions: rat; strain Sprague-Dawley; females; in feed; site: urinary bladder; lesion: several types; types named in the paper; dosed 46 weeks; study length 63 weeks
measured endpoint: TD50

**Q:** Can you share its TD50? I mean this molecule: O=CNc1nc(-c2ccc([N+](=O)[O-])o2)cs1
**A:** 5.07 mg/kg/day

====

test system: rodent lifetime carcinogenesis bioassay, tumor incidence TD50; assay: carcinogenic potency in animals, long-term in vivo studies, CPDB compilation (AID 1745844); details: rat; strain LEW/Crj (Lewis); males; in feed; site: stomach, glandular; lesion: adenocarcinoma; dosed 104 weeks; study length 104 weeks
measured endpoint: TD50

**Q:** Can you share its TD50? I mean this molecule: Oc1ccccc1O
**A:** 166 mg/kg/day

====

tested on: rodent lifetime carcinogenesis bioassay, tumor incidence TD50; test: carcinogenic potency in animals, long-term in vivo studies, CPDB compilation (AID 1745844); conditions: rat; strain Fischer 344; males; in feed; site: subcutaneous tissue; lesion: fibroma; dosed 103 weeks; study length 104 weeks
measured endpoint: TD50

**Q:** Can you share its TD50? I mean this molecule: N=C1C=CC(=C(c2ccc(N)cc2)c2ccc(N)cc2)C=C1
**A:** 35.3 mg/kg/day

====

system: rodent lifetime carcinogenesis bioassay, tumor incidence TD50; experiment: carcinogenic potency in animals, long-term in vivo studies, CPDB compilation (AID 1745844); conditions: rat; strain Fischer 344; males; in drinking water; site: skin; lesion: fibroma; dosed 104 weeks; study length 104 weeks
Active and inactive are the calls of the source. The rule behind the calls is not given here.
measured endpoint: TD50

**Q:** Can you share its TD50? I mean this compound: O=NO
**A:** 667 mg/kg/day (inactive)

====

system: rodent lifetime carcinogenesis bioassay, tumor incidence TD50; assay: carcinogenic potency in animals, long-term in vivo studies, CPDB compilation (AID 1745844); conditions: rat; strain Fischer 344; males; in feed; site: palate; lesion: basosquamous tumor, benign + squamous-cell carcinoma + squamous-cell papilloma; dosed 103 weeks; study length 104 weeks
measured endpoint: TD50 (mg/kg/day)
Give bare numbers, in mg/kg/day.

**Q:** Can you share its TD50? I mean this compound: Nc1cc(S(=O)(=O)[O-])cc2cc(S(=O)(=O)[O-])c(N=Nc3ccc(-c4ccc(N=Nc5c(S(=O)(=O)[O-])cc6cc(S(=O)(=O)[O-])cc(N)c6c5O)c(O)c4)cc3O)c(O)c12.[Cu].[Cu].[Na+].[Na+].[Na+].[Na+]
**A:** 1380

====

test system: rodent lifetime carcinogenesis bioassay, tumor incidence TD50; assay: carcinogenic potency in animals, long-term in vivo studies, CPDB compilation (AID 1745844); details: mouse; strain Ha/ICR; females; i.p.; site: abdomen; lesion: sarcoma; dosed 77 weeks; study length 77 weeks
measured endpoint: TD50

**Q:** Can you share its TD50? I mean this molecule: ClCOCc1ccc(COCCl)cc1
**A:** 3.11 mg/kg/day

====

test system: rodent lifetime carcinogenesis bioassay, tumor incidence TD50; test: carcinogenic potency in animals, long-term in vivo studies, CPDB compilation (AID 1745844); conditions: mouse; strain ASH-CS1; males; in feed; site: liver; lesion: nodular hyperplasia; dosed 80 weeks; study length 84 weeks
Activity calls are given as the source filed them. The rule behind the calls is not given here.
measured endpoint: TD50

**Q:** Can you share its TD50? I mean this compound: NC1CCCCC1
**A:** 231 mg/kg/day (inactive)

====

tested on: rodent lifetime carcinogenesis bioassay, tumor incidence TD50; test: carcinogenic potency in animals, long-term in vivo studies, CPDB compilation (AID 1745844); settings: rat; strain Fischer 344; males; in drinking water; site: liver; lesion: hyperplastic nodule; dosed 104 weeks; study length 128 weeks
measured endpoint: TD50

**Q:** Tell me reported TD50 for C=C/C=N/O , tested with rodent lifetime carcinogenesis bioassay, tumor incidence TD50.
**A:** 64.9 mg/kg/day

====

tested on: rodent lifetime carcinogenesis bioassay, tumor incidence TD50; test: carcinogenic potency in animals, long-term in vivo studies, CPDB compilation (AID 1745844); settings: mouse; strain Swiss; males; inhaled; site: skin; lesion: epithelioma; dosed 30 weeks; study length 77 weeks
measured endpoint: TD50
Field: value (include unit after the number)

**Q:** Can you share its TD50? I mean this molecule: C=CCl
**A:** 2690 mg/kg/day

====

test system: rodent lifetime carcinogenesis bioassay, tumor incidence TD50; assay: carcinogenic potency in animals, long-term in vivo studies, CPDB compilation (AID 1745844); conditions: rat; strain Buffalo; females; in feed; site: liver; lesion: hepatoma; dosed 53 weeks; study length 54 weeks
measured endpoint: TD50

**Q:** Can you share its TD50? I mean this molecule: O=C(Nc1ccc2c(c1)Cc1ccccc1-2)C(F)(F)F
**A:** 1.9 mg/kg/day

====

test system: rodent lifetime carcinogenesis bioassay, tumor incidence TD50; assay: carcinogenic potency in animals, long-term in vivo studies, CPDB compilation (AID 1745844); details: mouse; strain RIII (MTV+); females; in feed; site: mammary tissue, wider than the gland; lesion: one or several types; types not named; dosed 104 weeks; study length 104 weeks
measured endpoint: TD50 (mg/kg/day)
Answers are plain numbers, in mg/kg/day.

**Q:** Tell me reported TD50 for CC(=O)O[C@]1(C(C)=O)CC[C@H]2[C@@H]3C=C(Cl)C4=CC(=O)CC[C@]4(C)[C@H]3CC[C@@]21C (tested in a mixture with another compound) , tested with rodent lifetime carcinogenesis bioassay, tumor incidence TD50.
**A:** 2.12

====

tested on: rodent lifetime carcinogenesis bioassay, tumor incidence TD50; assay: carcinogenic potency in animals, long-term in vivo studies, CPDB compilation (AID 1745844); conditions: hamster; strain Syrian Golden; females; in drinking water; site: liver; lesion: angiosarcoma; dosed 67 weeks; study length 67 weeks
measured endpoint: TD50

**Q:** Can you share its TD50? I mean this compound: CNNC
**A:** 0.156 mg/kg/day

====

test system: rodent lifetime carcinogenesis bioassay, tumor incidence TD50; experiment: carcinogenic potency in animals, long-term in vivo studies, CPDB compilation (AID 1745844); details: rat; strain Charles River CD (Sprague-Dawley); males; by gavage; site: all sites; lesion: granulocytic leukemia; dosed 46 weeks; study length 60 weeks
measured endpoint: TD50

**Q:** Tell me reported TD50 for O=S1(=O)CCCO1 , tested with rodent lifetime carcinogenesis bioassay, tumor incidence TD50.
**A:** 23.5 mg/kg/day

====

test system: rodent lifetime carcinogenesis bioassay, tumor incidence TD50; assay: carcinogenic potency in animals, long-term in vivo studies, CPDB compilation (AID 1745844); conditions: mouse; strain CDF1; males; in feed; site: lung; lesion: adenoma; dosed 57 weeks; study length 57 weeks
measured endpoint: TD50 (mg/kg/day)
Answers are plain numbers, in mg/kg/day.

**Q:** Can you share its TD50? I mean this compound: Cc1cccn2c1nc1ccc(N)nc12
**A:** 1000

====

system: rodent lifetime carcinogenesis bioassay, tumor incidence TD50; test: carcinogenic potency in animals, long-term in vivo studies, CPDB compilation (AID 1745844); settings: mouse; strain B6C3F1; females; in feed; site: any site (literature study); lesion: several types; types named in the paper; dosed 106 weeks; study length 106 weeks
Calls of active or inactive are those of the source. No rule for the calls is given here.
measured endpoint: TD50

**Q:** Tell me reported TD50 for CCN(CC)C(=S)S[Te](SC(=S)N(CC)CC)(SC(=S)N(CC)CC)SC(=S)N(CC)CC , tested with rodent lifetime carcinogenesis bioassay, tumor incidence TD50.
**A:** 1030 mg/kg/day (inactive)

====

tested on: rodent lifetime carcinogenesis bioassay, tumor incidence TD50; assay: carcinogenic potency in animals, long-term in vivo studies, CPDB compilation (AID 1745844); conditions: rat; strain Fischer 344; males; by gavage; site: liver; lesion: neoplastic nodule; dosed 35 weeks; study length 120 weeks
measured endpoint: TD50

Hey, can you go through the list below and give me TD50 for every item?
1. O=NN(CCO)C(=O)NCCCl
2. CC(O)CN(N=O)C(=O)NCCCl (configuration not stated)

**A:**
1: 1.19 mg/kg/day; 2: 1.17 mg/kg/day

====

tested on: rodent lifetime carcinogenesis bioassay, tumor incidence TD50; assay: carcinogenic potency in animals, long-term in vivo studies, CPDB compilation (AID 1745844); details: mouse; strain Swiss; males; in drinking water; site: liver; lesion: several types; types named in the paper; dosed 120 weeks; study length 124 weeks
measured endpoint: TD50 (mg/kg/day)
Give bare numbers, in mg/kg/day.

**Q:** Can you share its TD50? I mean this molecule: N
**A:** 26700

====

system: rodent lifetime carcinogenesis bioassay, tumor incidence TD50; assay: carcinogenic potency in animals, long-term in vivo studies, CPDB compilation (AID 1745844); settings: mouse; strain C3H/HeN-MTV-/Nctr (MTV-); females; in feed; site: mammary gland; lesion: adenocarcinoma, type B; dosed 123 weeks; study length 123 weeks
measured endpoint: TD50
Field: value (include unit after the number)

**Q:** Can you share its TD50? I mean this compound: CC/C(=C(/CC)c1ccc(O)cc1)c1ccc(O)cc1
**A:** 0.118 mg/kg/day

Where these numbers come from: PubChem BioAssay AID1745844
